Source: PubChem BioAssay AID1919013

tested on: LG0703-F498-PDC complex spheroid growth; assay: Anticancer human tumor LG0703-F498-PDC patient-derived lung adenocarcinoma cell line growth inhibition [AhR]; settings: second compound 10 µM; first compound 0.1 µM; active = viability on the fitted dose curve at most 10% of control; inactive = the rest;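 note: luminescence taken as a proxy for viable cell amount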
Returns: one label drawn from active, inactive

Entry Nc1ncn(C2CC(O)C(CO)O2)c(=O)n1 (stereo not drawn) + CC(CO)NC(=O)c1cc(-c2ccc(Cl)cc2)nn(-c2cnn(C)c2)c1=O : call = ?
inactive

Lookup NS(=O)(=O)OCC1CC(n2ccc3c(NC4CCc5ccccc54)ncnc32)CC1O (stereo not drawn) + Cc1ccccc1N=Nc1ccc(NC(=O)c2ccnn2C)c(C)c1
inactive

Lookup NS(=O)(=O)OCC1CC(n2ccc3c(NC4CCc5ccccc54)ncnc32)CC1O (stereo not drawn) + Cc1cncc(-c2nc(NCCc3c[nH]c4ccccc34)c3ncn(C(C)C)c3n2)c1
active
